# experimental-target: human TLR7 (Homo sapiens (Human))
# Sequence (Q9NYK1 27-1049): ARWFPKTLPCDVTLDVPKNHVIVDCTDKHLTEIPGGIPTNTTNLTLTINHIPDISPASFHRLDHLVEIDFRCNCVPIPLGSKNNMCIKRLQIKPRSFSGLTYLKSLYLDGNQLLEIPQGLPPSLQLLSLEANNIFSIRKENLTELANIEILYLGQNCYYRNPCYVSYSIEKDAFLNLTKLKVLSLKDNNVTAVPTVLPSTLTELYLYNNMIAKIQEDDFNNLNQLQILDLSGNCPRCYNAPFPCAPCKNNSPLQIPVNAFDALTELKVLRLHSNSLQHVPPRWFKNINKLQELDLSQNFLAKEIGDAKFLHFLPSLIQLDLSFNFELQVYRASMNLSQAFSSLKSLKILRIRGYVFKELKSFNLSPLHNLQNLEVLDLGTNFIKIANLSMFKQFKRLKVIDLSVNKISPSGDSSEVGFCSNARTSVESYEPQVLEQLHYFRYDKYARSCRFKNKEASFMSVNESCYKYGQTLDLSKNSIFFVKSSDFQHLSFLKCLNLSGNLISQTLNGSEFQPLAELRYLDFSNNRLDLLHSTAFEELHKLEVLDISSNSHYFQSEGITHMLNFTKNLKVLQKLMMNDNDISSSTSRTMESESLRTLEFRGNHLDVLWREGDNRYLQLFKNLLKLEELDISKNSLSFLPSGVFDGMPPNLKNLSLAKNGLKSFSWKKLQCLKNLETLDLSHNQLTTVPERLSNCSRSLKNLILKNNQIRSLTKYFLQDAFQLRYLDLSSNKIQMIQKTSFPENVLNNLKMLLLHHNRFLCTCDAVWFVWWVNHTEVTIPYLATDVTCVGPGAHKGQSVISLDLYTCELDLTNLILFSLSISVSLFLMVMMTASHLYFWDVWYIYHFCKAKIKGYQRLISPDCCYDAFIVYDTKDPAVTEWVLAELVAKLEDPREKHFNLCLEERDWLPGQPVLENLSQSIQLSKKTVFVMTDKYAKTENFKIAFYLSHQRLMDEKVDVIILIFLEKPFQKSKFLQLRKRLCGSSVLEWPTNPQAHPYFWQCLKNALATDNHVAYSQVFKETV
# assay-overview: TLR7 inhibition reporter assay (HEK-Blue cells, SEAP reporter, gardiquimod stimulation)
# Assay type: cell-based
# experimental-conditions: HEK-Blue cells overexpressing human TLR7, gardiquimod 7.5 μM
experimental-endpoint: pIC50
# pIC50 = -log10(concentration in molar units)

Please give the documented pIC50 of Cc1cc(-c2[nH]c3ccc(C4CCNCC4)cc3c2C(C)C)cc(N2CCN(C)CC2)n1 5.54

Please give the documented pIC50 of Cc1cc(-c2cc3cc(C4CCNCC4)ccc3[nH]2)cc(C)n1 6.27

Please give the documented pIC50 of Cc1nccc(-c2[nH]c3ccc(C4CCN(C5COC5)CC4)cc3c2C(C)C)c1F 8.04

Please give the documented pIC50 of Cc1cc(-c2[nH]c3ccc(C4CCN(C5CCN(C(C)C)CC5F)CC4)cc3c2C(C)C)ccn1 (centres unmarked) 7.64

Please give the documented pIC50 of CNC(=O)CN1CCC(c2ccc3[nH]c(-c4cc(C)nc(C5CC5)c4)c(C(C)C)c3c2)CC1 7.97

Please give the documented pIC50 of Cc1cc(-c2[nH]c3ccc(C4CCN(C(=O)CN5C[C@H](C)C[C@@H]5CO)CC4)cc3c2C(C)C)cc(C)n1 8.35

Please give the documented pIC50 of Cc1cc(-c2[nH]c3ccc(C4CCN(Cc5nnc(C6CC6)o5)CC4)cc3c2C(C)C)cc(C)n1 7.29

Please give the documented pIC50 of CC(=O)N1CCC(c2ccc3[nH]c(-c4cc(C)nc(C)c4)c(C(C)C)c3c2)CC1 8.26
